The reported measurements were obtained from ChEMBL document CHEMBL1152281.

assay.overview: Metabolic stability in human liver microsomes assessed as half life
property: half-life (min)
Quick note: give the figure in min, leave out the unit.

Exercise: Consider the compound OCCCCNc1nnc(-c2ccc(F)c(F)c2Nc2ccc(I)cc2F)o1 and give its measured half-life.
Key: 40

Exercise: Consider the compound OCCCNc1nnc(-c2ccc(F)c(F)c2Nc2ccc(I)cc2F)o1 and give its measured half-life.
Key: 40

Exercise: Consider the compound OCCNc1nnc(-c2ccc(F)c(F)c2Nc2ccc(I)cc2F)o1 and give its measured half-life.
Key: 40

Exercise: Consider the compound CNCCNc1nnc(-c2ccc(F)c(F)c2Nc2ccc(I)cc2F)o1 and give its measured half-life.
Key: 40

Exercise: Consider the compound O=C(NOCC1CC1)c1ccc(F)c(F)c1Nc1ccc(I)cc1Cl and give its measured half-life.
Key: 8

* * *

assay.overview: Solubility in sodium phosphate buffer at pH 6.5 by HPLC
So I've got a bunch of compounds here, and I need their solubility values.

Exercise: Consider the compound OCCCCCNc1nnc(-c2ccc(F)c(F)c2Nc2ccc(I)cc2F)o1 and give its measured solubility.
Key: < 3 µg/mL

Exercise: Consider the compound Nc1nnc(-c2ccc(F)c(F)c2Nc2ccc(I)cc2F)o1 and give its measured solubility.
Key: < 3 µg/mL

Exercise: Consider the compound CNCCNc1nnc(-c2ccc(F)c(F)c2Nc2ccc(I)cc2F)o1 and give its measured solubility.
Key: 6.7 µg/mL

Exercise: Consider the compound NCCCNc1nnc(-c2ccc(F)c(F)c2Nc2ccc(I)cc2F)o1 and give its measured solubility.
Key: 5.4 µg/mL

Exercise: Consider the compound NCCNc1nnc(-c2ccc(F)c(F)c2Nc2ccc(I)cc2F)o1 and give its measured solubility.
Key: < 3 µg/mL

Exercise: Consider the compound OCCCNc1nnc(-c2ccc(F)c(F)c2Nc2ccc(I)cc2F)o1 and give its measured solubility.
Key: < 3 µg/mL

* * *

So I've got a bunch of molecules here, and I need their half-life values.
assay.overview: Metabolic stability in human liver microsomes assessed as half life
Quick note: give the figure in min, leave out the unit.

Exercise: Consider the molecule Fc1cc(I)ccc1Nc1c(-c2nnc(NCCCN3CCOCC3)o2)ccc(F)c1F and give its measured half-life.
Key: 40

Exercise: Consider the molecule CCN(CC)CCCNc1nnc(-c2ccc(F)c(F)c2Nc2ccc(I)cc2F)o1 and give its measured half-life.
Key: 40

Exercise: Consider the molecule NCCNc1nnc(-c2ccc(F)c(F)c2Nc2ccc(I)cc2F)o1 and give its measured half-life.
Key: 40

Exercise: Consider the molecule NCCCNc1nnc(-c2ccc(F)c(F)c2Nc2ccc(I)cc2F)o1 and give its measured half-life.
Key: 40

Exercise: Consider the molecule COCCCNc1nnc(-c2ccc(F)c(F)c2Nc2ccc(I)cc2F)o1 and give its measured half-life.
Key: 35

Exercise: Consider the molecule OCCCCCNc1nnc(-c2ccc(F)c(F)c2Nc2ccc(I)cc2F)o1 and give its measured half-life.
Key: 40
